assay: Examination of solubility of a UV-A absorbent in various oily materials; conditions: amount of “Soft Shade DH” dissolved in 100 g of the oily material
measurementName: Solubility

CCCCCCCCCCCC(=O)N(C)CCC(=O)OC(C)C [Synthesis Example 15] = ◯ (It is at least 10 g.)
CCCCCCCCCCCC(=O)N(C)CC(=O)OC(C)C [Synthesis Example 14, N-laurolysarcosine isopropyl ester] = ◯ (It is at least 10 g.)

----------
experiment: Evaluation of pigment dispersibility (wetting point / flowing point); type: physicochemical; details: difference between wetting point and flowing point; liquid paraffin added to TiO2 containing 10% by weight of oily material
measurementName: Pigment dispersibility

CCCCCCCCCCCC(=O)N(C)CCC(=O)OC(C)C [Synthesis Example 15] = ◯◯
CCCCCCCCCCCC(=O)N(C)CC(=O)OC(C)C [Synthesis Example 14, N-laurolysarcosine isopropyl ester] = ◯◯
